# systemUnderTest: T1, FABP3 with N-terminal His6 tag (UniProt P05413 1-133)
# T1 construct: synthetic gene (Invitrogen GeneArt) in pET28a between NdeI and XhoI; Apo (delipidized) form; held on the Ni-NTA quartz sensor by the His6 tag; also called His6-FABP3; not shown: His6, N-terminal, kept
# T1 sequence (P05413 whole entry): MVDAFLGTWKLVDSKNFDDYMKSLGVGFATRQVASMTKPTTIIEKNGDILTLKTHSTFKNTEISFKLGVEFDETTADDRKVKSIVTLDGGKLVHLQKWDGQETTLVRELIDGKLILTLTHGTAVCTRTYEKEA
# testDetails: quartz crystal microbalance (QCM); His6-FABP3 (or FABP3 F16S) immobilised on the gold-plated quartz sensor through Ni-NTA groups; αSyn, its variants or peptides added at varying concentrations; room temperature; 50 mM Tris-HCl pH 7.4; kobs = koff + kon[αSyn], Kd from kon and koff (AQUA 2.0)
# conditionSet: both partners purified
kon values for the binders below.
Output spec: scalar in M⁻¹ s⁻¹, unitless text.

The following binders have reported results that may help.
EEGFQDYEPEA (source: synthetic peptide (SCRUM Inc or BEX Co Ltd)) [αSynP130-140 Y133F]: 750000
EEGYQDWEPEA (source: synthetic peptide (SCRUM Inc or BEX Co Ltd)) [αSynP130-140 Y136W]: 380000
EEGYQDYEPEA (also called α-synuclein decoy peptide; C-terminal peptide of αSyn; source: synthetic peptide (SCRUM Inc or BEX Co Ltd)) [αSynP130-140]: 200000

Next item in the queue.
State the recorded kon for this entry: EEGFQDWEPEA (source: synthetic peptide (SCRUM Inc or BEX Co Ltd)) [αSynP130-140 Y133F/Y136W] 320000

Hey, just so you know, these numbers are from paper PMC8131325.
